# Test system: HOP-92 NSCLC
# test-name: NCI-60 one-dose screen, 48 h (100 = growth as untreated, 0 = no growth, -100 = all killed)
# assay-conditions: 10 µM unless noted
The panel holds about 83,000 compounds, 20% with a hit somewhere; the sample as a whole holds those more often.
property-label: growth (%)
Answers are plain numbers, in %.

1) Nc1ccc2c(c1Br)Cc1ccccc1-2 = 76
2) COc1cc(C(=O)c2cc3c(cc2C)OCO3)cc(OC)c1OC = 37.4
3) O=C(Nc1cccc(-n2cc(-c3ccncc3)c(-c3cc(O)cc(Cl)c3)n2)c1)Nc1ccc(Cl)c(Cl)c1 = -30.5

# batch: return growth for each of the 8 compounds below
1. COc1cc(/C=C/C(=O)c2c(C)n([O-])c3ccccc3[n+]2=O)cc(OC)c1OC
2. CN(C)c1ccc(-c2nc3ncc(Br)cc3o2)cc1
3. CC1Cc2ccccc2N1C(=O)c1ccc(C(=O)c2ccccc2)cc1 (configuration not stated)
4. C[C@H]1c2cccc(O)c2C(O)=C2C(=O)[C@]3(O)C(O)=C(C(N)=O)C(=O)[C@@H](N(C)C)[C@@H]3[C@@H](O)[C@@H]21
5. CCNCCCn1c2c(c3ccc(F)cc3c1=O)C(=O)c1cc(OC)cnc1-2
6. O=CNc1ccc2c(c1)Cc1cc([N+](=O)[O-])ccc1-2
7. COc1cnc2c(c1)C(=O)c1c-2n(CCCN2CCOCC2)c(=O)c2cc(F)ccc12
8. CS(=O)(=O)N1CCN(Cc2cc3nc(-c4cccc5[nH]ncc45)nc(N4CCOCC4)c3s2)CC1 (tested in a mixture with another compound)

[reply]
1: -0.517; 2: 61.8; 3: 92; 4: 24.3; 5: -15.5; 6: 42.4; 7: -13.5; 8: -37.6

# batch: return growth for each of the 5 compounds below
1. COc1cc(/C=C/C(=O)CC(=O)/C=C/c2ccc(OC(=O)C3C4CC5CC(C4)CC3C5)c(OC)c2)ccc1OC(=O)C1C2CC3CC(C2)CC1C3 (configuration not stated)
2. O=C(O)CNC(=O)C1(N2C(=O)c3ccccc3C2=O)CCCC1
3. C=C1CC[C@@H]2[C@](C)(COC(C)=O)[C@H](OC(C)=O)CC[C@@]2(C)[C@@H]1CC(NCc1ccccc1)C1=CCOC1=O (some centres not stated)
4. CCC(=O)Nc1cc2c(cc1Cl)-c1ccccc1C2
5. O=C(COc1ccc(/C=C2\Cc3ccccc3C2=O)cc1)c1ccc(Cl)cc1

[reply]
65.5
124
41.7
76.9
90.7

---

# System: NCI-H460 lung
# test-name: NCI-60 one-dose screen, 48 h
# assay-conditions: 10 µM unless noted
Compounds without any hit were thinned out: in the full panel of roughly 83,000, 20% have a hit. Activity calls are given as the source filed them. The calls were made as follows: active = growth percent below 10; inactive = the rest.
Valid outcomes are listed here; reply with one: active, inactive

# example entries with known answers
1) COc1ccc2c(c1)c(CC(=O)[Se]C)c(C)n2C(=O)c1ccc(Cl)cc1 = active
2) CCOC(=O)c1sc(NC(=O)COc2cccc(/C=C3\Cc4ccc(Cl)cc4C3=O)c2)nc1C = inactive

[ask] Give the logged outcome of this assay for the following compound: `CNNc1ncnc2c1cnn2-c1ccc(S(N)(=O)=O)cc1`
[reply] inactive

[ask] Give the logged outcome of this assay for the following compound: `O=C(COc1ccc(/C=C2\Oc3ccc4ccccc4c3C2=O)cc1)c1ccc([N+](=O)[O-])cc1`
[reply] inactive

---

Exercise: for every item that follows, state its recorded growth.
# Test system: SK-OV-3 ovarian
# test-name: NCI-60 one-dose screen, 48 h (100 = growth as untreated, 0 = no growth, -100 = all killed)
# assay-conditions: 10 µM unless noted
This is part of a sample that, as a whole, favours compounds with a hit. Of some 83,000 tested, about 20% had one in any assay.
Answers are plain numbers, in %.

1) CCOC(=O)/C(=C/CC/C(C)=C/CC/C(C)=C/CCc1ccoc1)CC(=O)N1CCCCC1 = 84.4
2) O=C(Nc1nc2c(C(F)(F)F)cccc2s1)c1cc(Cl)ccc1O = -8.89
3) CN(C)c1ccc(-c2nc3ncc(Br)cc3o2)cc1 = 94.8
4) COc1ccc(C(=O)COc2cccc(/C=C3\CSc4ccc(Cl)cc4C3=O)c2)cc1 = 94.6
5) CCN(CC)CCCCCCCNc1c2ccc(Cl)cc2nc2ccc(OC)cc12 = -30.7
6) Cc1n(Cc2ccc3ccccc3c2)c2ccccc2[n+]1Cc1ccc2ccccc2c1 = -18.4

# batch: return growth for each of the 2 compounds below
1. COc1cc(C2=NN(C=O)C(c3cccc(Nc4ccnc5cc(Cl)ccc45)c3)C2)cc(OC)c1OC (stereo not drawn)
2. Cc1ccc(/C=C(/C#N)n2nnc3ncccc32)cc1

[reply]
[80.5, 14.2]

---

# Test system: SR leukemia
# test-name: NCI-60 one-dose screen, 48 h (100 = growth as untreated, 0 = no growth, -100 = all killed)
# assay-conditions: 10 µM unless noted
Compounds without any hit were thinned out: in the full panel of roughly 83,000, 20% have a hit. Calls of active or inactive are those of the source. The calls were made as follows: active = growth percent below 10; inactive = the rest.
property-label: growth

Reference set, count: 5
1. CCOC(=O)Nc1cc(-c2ccc(C)c(NS(C)(=O)=O)c2)nn2c(C)nnc12 = 24.9% (inactive)
2. CN1CCN(c2nc3scc(-c4ccccc4)c3c(=O)[nH]2)CC1 = 94.1% (inactive)
3. N#Cc1c(-c2ccccc2)cc(-c2ccccc2)n(CCC(=O)O)c1=O = 19.8% (inactive)
4. CSc1nc(-c2ccc(O)cc2O)c2c(=O)[nH]c(Nc3ccc(S(=O)(=O)Nc4nc(C)cc(C)n4)cc3)nc2n1 = 63.3% (inactive)
5. O=C1NC(=O)/C(=C\c2ccco2)S1 = 113% (inactive)

# batch: return growth for each of the 3 molecules below
1. COc1ccc2c(c1)C(=Nc1cc(OC)c(OC)c(OC)c1)C(=O)N2
2. COc1cnc2c(c1)C(=O)c1c-2n(CCCN2CCNCC2)c(=O)c2cc(F)ccc12
3. COc1cnc2c(c1)C(=O)c1c-2n(CCCN2CCOCC2)c(=O)c2cc(F)ccc12

[reply]
["75.4% (inactive)", "-13.1% (active)", "1.17% (active)"]

# batch: return growth for each of the 7 molecules below
1. COc1ccc(Oc2ccccc2NC(=O)CNC(=O)c2cccc3ccccc23)cc1
2. COc1cnc2c(c1)C(=O)c1c-2n(CCCN2CCC(O)CC2)c(=O)c2cc(F)ccc12
3. O=Cc1ncc(-c2ccc(C(F)(F)F)cc2)c(NC2CCCCCC2)n1
4. O=c1[nH]c(N2CCC(Cc3ccccc3)CC2)nc2sc3c(c12)CCCC3
5. COc1ccc(C2=NN(C(C)=O)C(c3cccc(Nc4ccnc5cc(Cl)ccc45)c3)C2)cc1 (stereo not given)
6. CCOC(=O)CNC(=O)C1(NC(=O)CNC(=O)OCc2ccccc2)CCCC1
7. N#Cc1ccc(-c2csc(Nc3ccc4nc5n(c(=O)c4c3)CCC5)n2)cc1

[reply]
23.7% [5 µM] (inactive)
0.0108% (active)
-29.1% [100 µM] (active)
109% (inactive)
-8.23% (active)
103% (inactive)
93.6% (inactive)

# batch: return growth for each of the 6 molecules below
1. O=C(Nc1ccccc1)P(=O)(O)c1ccccc1
2. Cc1sc2nc(NCCc3cccs3)[nH]c(=O)c2c1C
3. C=C1CCC2C(C)(COC(=O)CC)C(OC(=O)CC)CCC2(C)C1C/C=C1/C(=O)OCC1OC(=O)CC (stereo not given)
4. COc1ccccc1-n1c(-c2ccc(O)cc2C)cn2c3c(=O)[nH]c(=O)n(C)c3nc12
5. Cc1[nH]c(=O)[nH]c(=O)c1CCSSCCc1c(C)[nH]c(=O)[nH]c1=O
6. N#Cc1c(-c2ccccc2)cc(-c2ccccc2)n(CCCC(=O)O)c1=O

[reply]
98% (inactive)
72.1% (inactive)
-23% (active)
90.8% (inactive)
79.6% (inactive)
91.8% (inactive)

# batch: return growth for each of the 8 molecules below
1. CC(=O)Nc1cc2c3c(cccc3c1)-c1ccccc1-2
2. COC(=O)C1CCN(S(=O)(=O)c2ccc(-c3ccccc3)cc2)CC1
3. CCOC(=O)CCN(c1c(Cl)ssc1=O)C(C)C
4. C(=C1c2ccccc2-c2ccccc21)c1ccncc1
5. COc1ccc(-c2c3c(N)nc(-c4ccncc4)nc3nc3c2c(C)nn3-c2ccccc2)cc1
6. O=C1NC(=O)/C(=C/c2ccc(Cl)cc2Cl)N1
7. O=C(COc1cccc(/C=C2\Oc3ccc4ccccc4c3C2=O)c1)c1ccc(Cl)cc1
8. O=C1c2cc3c(cc2-c2c1c1ccc(Cl)cc1c(=O)n2CCCNCCO)OCO3

[reply]
1: 81.6% (inactive); 2: 75.7% (inactive); 3: 134% (inactive); 4: 9.55% (active); 5: 17.1% (inactive); 6: 93% (inactive); 7: 51.6% (inactive); 8: -43.8% (active)

So, `C/C(=C\CCc1ccoc1)CC/C=C(\C)CCCN1CCOCC1` ? Its growth was 21% (inactive)
